# tested.system: GPR84 (Homo sapiens)
# Construct: expressed in transfected cells; host or cells: HEK293
# Sequence (Q9NQS5 whole entry): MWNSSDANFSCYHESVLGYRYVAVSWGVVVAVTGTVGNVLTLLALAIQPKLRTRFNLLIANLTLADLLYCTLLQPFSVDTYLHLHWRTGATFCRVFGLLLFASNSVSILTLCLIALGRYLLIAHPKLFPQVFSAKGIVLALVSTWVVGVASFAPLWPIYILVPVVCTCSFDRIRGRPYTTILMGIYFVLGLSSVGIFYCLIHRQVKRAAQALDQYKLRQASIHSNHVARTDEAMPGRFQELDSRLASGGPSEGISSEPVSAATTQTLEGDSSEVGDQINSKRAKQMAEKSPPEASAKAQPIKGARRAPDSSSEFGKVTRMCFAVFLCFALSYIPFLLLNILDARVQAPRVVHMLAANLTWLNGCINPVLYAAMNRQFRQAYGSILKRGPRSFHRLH
# protocol.description: GPR84 calcium flow model (antagonism of agonist 6-OAU, Fluo-4 fluorescence)
# Assay type: cell-based
# condition.summary: HEK293 cell line transfected with GPR84 and Gα16; agonist 6-OAU; Fluo-4; read-out: IC50 of the compound detected by the GPR84 calcium flow model
IC50 reference

These solved cases illustrate the format of a correct answer.
compound	tested.system	result
CCOC(=O)C(C)c1ccc2c(c1)C=C(OP(=O)(O)OC1=Cc3ccccc3Sc3c(OC)cccc31)c1ccccc1S2 (stereo not shown)	GPR84 (Homo sapiens)	0.1 to 100 nM
O=P(O)(OC1=Cc2cccc(Cl)c2Sc2ccccc21)OC1=Cc2cccc(Cl)c2Sc2ccccc21	GPR84 (Homo sapiens)	100 to 1000 nM
CCOc1cccc2c1Sc1ccccc1C=C2OP(=O)(O)OC1=Cc2ccccc2Sc2c(OCC)cccc21	GPR84 (Homo sapiens)	0.1 to 100 nM

Note: attention shifts to another entry.
-- ask Entry under review: O=P(O)(OC1=Cc2ccsc2Sc2sccc21)OC1=Cc2ccsc2Sc2sccc21 . Reported IC50?
-- reply 100 to 1000 nM

All figures here come from patent US11098071B2.
